- test_name: Pharmacokinetics in SD rats, single intravenous injection and oral administration
- Assay type: in vivo, SD rat
- assay_context: SD, rat, in vivo, PO 10 mg/kg, NA: Exposure was too low to be counted
measured_endpoint: Cmax (ng/mL)
Give just the number in ng/mL; leave the unit off.

Form field Cmax, entry CCOc1cc2ncc(C#N)c(Nc3ccc(OCc4ccccn4)c(Cl)c3)c2cc1NC(=O)/C=C/CN(C)C [NERATINIB, neratinib, reference compound] : 201
